Target: IRAK4 (Homo sapiens)
Construct: endogenous in cells; host or cells: THP-1 cells
Sequence (Q9NWZ3 whole entry): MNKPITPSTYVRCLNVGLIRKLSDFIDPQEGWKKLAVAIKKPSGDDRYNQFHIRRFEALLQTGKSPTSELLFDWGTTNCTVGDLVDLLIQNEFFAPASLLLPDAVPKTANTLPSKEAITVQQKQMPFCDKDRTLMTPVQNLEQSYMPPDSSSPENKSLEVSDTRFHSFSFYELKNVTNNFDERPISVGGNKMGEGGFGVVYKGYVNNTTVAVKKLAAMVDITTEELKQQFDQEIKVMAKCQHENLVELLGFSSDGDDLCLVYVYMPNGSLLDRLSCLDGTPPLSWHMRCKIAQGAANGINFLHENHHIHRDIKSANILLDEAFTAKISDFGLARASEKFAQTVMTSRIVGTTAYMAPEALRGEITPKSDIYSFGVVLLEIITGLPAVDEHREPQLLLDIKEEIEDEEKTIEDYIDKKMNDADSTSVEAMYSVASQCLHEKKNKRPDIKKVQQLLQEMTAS
Assay: ALE THP1 HTRF (Advanced Lipoxidation End Product THP1 Homogeneous Time Resolved Fluorescence)
Assay type: cell-based
Conditions: THP1 cells
pEC50: −log10 of the molar value.
parameter: pEC50

Guide cases for pEC50, answers given:
[
  {
    "compound": "O=C1CCC(c2ccc(NCC3CCN(C(=O)C4CCC(NC(=O)c5cnc(Nc6ccc7ncsc7c6)cc5NC5CCCC5)CC4)CC3)cc2)C(=O)N1 (centres unmarked) [P-11]",
    "pEC50": 9.00
  },
  {
    "compound": "N#Cc1cnc2c(cnn2-c2cc(NC3CC3)c(C(=O)N[C@H]3CC[C@H](CCN4CCC5(CC4)CN(c4cccc(C6CCC(=O)NC6=O)c4)C5)CC3)cn2)c1 (some centres unmarked) [P-90]",
    "pEC50": 7.55
  },
  {
    "compound": "C[C@H](C#N)Nc1cc(-n2ncc3cc(C#N)c(N)nc32)ncc1C(=O)N[C@H]1CC[C@H](CCN2CCN(c3ccc(C4CCC(=O)NC4=O)cc3)C(=O)C2)CC1 (some centres unmarked) [P-177]",
    "pEC50": 8.40
  },
  {
    "compound": "COc1cc(N2CCN(CCC3CCC(NC(=O)c4cnc(-n5ncc6cc(C#N)cnc65)cc4NC4CC4)CC3)CC2)ccc1C1CCC(=O)NC1=O (centres unmarked) [P-79]",
    "pEC50": 7.37
  },
  {
    "compound": "CC(F)(F)CNc1cc(-n2ncc3cc(C#N)cnc32)ncc1C(=O)NC1CCC(CCN2CCN(c3ccc(C4CCC(=O)NC4=O)cc3)CC2)CC1 (centres unmarked) [P-65]",
    "pEC50": 8.00
  }
]

I: C[C@H](C#N)Nc1cc(-c2cnc3cc(C#N)cnn23)ncc1C(=O)N[C@H]1CC[C@H](CCN2CCN(c3ccc(C4CCC(=O)NC4=O)cc3)CC2)CC1 (some centres unmarked) [P-147]
II: N#Cc1cnc2c(cnn2-c2cc(NC3CC3)c(C(=O)NC3CCC(CCN4CCN(c5ccc(C6CCC(=O)NC6=O)nc5)CC4)CC3)cn2)c1 (centres unmarked) [P-85]
III: N#Cc1cnc2c(cnn2-c2cc(NC3CC3)c(C(=O)N[C@H]3CC[C@H](C(F)(F)CN4CCN(c5ccc(C6CCC(=O)NC6=O)cc5)CC4)CC3)cn2)c1 (some centres unmarked) [P-104]
IV: C[C@@H](CO)Nc1cc(-n2ncc3cc(C#N)cnc32)ncc1C(=O)NC1CCC(CCN2CCN(c3ccc(C4CCC(=O)NC4=O)cc3)CC2)CC1 (some centres unmarked) [P-78]
V: C[C@H](C#N)Nc1cc(-n2ncc3cc(C#N)cnc32)ncc1-n1cc(C2CCC(CCN3CCN(c4ccc(C5CCC(=O)NC5=O)cc4)[C@H](C)C3)CC2)nn1 (some centres unmarked) [P-155]
Task: Could you please sort these 5 entries by pEC50 from high to low? List each label, following the requested order.
Output: V, IV, I, III, II
(V: 8.70, IV: 8.05, I: 7.72, III: 7.33, II: 6.93)
